assay: Aqueous solubility at pH 5.0 to 7.0; format: physicochemical; conditions: pH 6, water

- compound: "C=C(NC(=O)c1csc(-c2nc3c(cc2O[C@@H]2O[C@@H](C)[C@H](O)[C@@H](O)[C@H]2O)-c2nc(cs2)C(=O)NC(C(C)O)C(=O)N/C(=C\\C)c2nc(cs2)C(=O)NC2CC(O)C(=O)OCc4cccc5[nH]c(c(C)c45)C(=O)SCC(NC(=O)c4csc2n4)c2nc-3cs2)n1)C(N)=O (stereo partly shown) [NOS‐R]"
  uom: "µg/mL"
  solubility: 0.526
